// data source = ChEMBL document CHEMBL3425484

- Tested on: Coxsackievirus
- Assay text: Antiviral activity against Coxsackievirus B3 infected in african green monkey Vero cells assessed as reduction in viral-induced cytopathic effect
- Format: functional, organism-based
Kindly supply the reported IC50 values for the records listed here.
Reply with just the number (in µM).

Exercise: Look up IC50: "O=C(O)C/C=C\[C@@H]1[C@H]2CCCN3CCC[C@@H](CN1S(=O)(=O)c1ccccc1[N+](=O)[O-])[C@@H]23"
Solution: 16.2

Exercise: Look up IC50: "N#Cc1cccc(S(=O)(=O)N2C[C@@H]3CCCN4CCC[C@@H]([C@H]34)[C@H]2CCCCO)c1"
Solution: 11.3

Exercise: Look up IC50: "N#Cc1cccc(S(=O)(=O)N2C[C@@H]3CCCN4CCC[C@@H]([C@H]34)[C@H]2/C=C\CC(=O)O)c1"
Solution: 17.4

Exercise: Look up IC50: "COC(=O)CCC[C@@H]1[C@H]2CCCN3CCC[C@@H](CN1S(=O)(=O)c1cccc(C(F)(F)F)c1)[C@@H]23"
Solution: 1.98

Exercise: Look up IC50: "COC(=O)C/C=C\[C@@H]1[C@H]2CCCN3CCC[C@@H](CN1S(=O)(=O)c1ccccc1C#N)[C@@H]23"
Solution: 4.21

Exercise: Look up IC50: "NC(=O)c1ncn([C@@H]2O[C@H](CO)[C@@H](O)[C@H]2O)n1"
Solution: 695

Exercise: Look up IC50: "O=S(=O)(c1ccc(C(F)(F)F)cc1)N1C[C@@H]2CCCN3CCC[C@@H]([C@H]23)[C@H]1CCCCO"
Solution: 6.55
